Give PBM binding z-score for every item shown.
Test system: PPARg DBDmut:RXRa IVT, anti-PPARg (DBD mutation: PPARg1 K132A/R137A, NR concentration 270 nM, RXRa partner concentration 90 nM)
Assay: PBM binding z-score (relative to random genomic background probes); higher = stronger binding; sequences stand for … in GC…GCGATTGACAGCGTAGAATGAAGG
Numbers only.

# annotated cases, reported PBM binding z-score shown
CCTAGGAGGCCAGGGTCACTCAAGCATTTCGCTT; -0.773
TCTGCTAGGGCAGTTGGTCAGCTAACGAGCTGCC; -0.206
CCGGCTGGGGCAAGGTTACCATAACGCACAGCCA; -1
AGAATGAGGTTAAGATCAGAGAAACAGAATACAT; 1.54
ACTATTAGTTGACTTAGGGCAAACGATACGACGC; 1.39

I have 6 sequences here; please give me PBM binding z-score for each one.
1. TCTTGTAGATCAGTAGAGGTTAAGAAAGTGCGCT
2. TCGAGTAAGTTACCAATGGGGCATTCAGCTTTCT
3. ATCGAAAGGTCGAAGAGGTGAGTATACACCGTTT
4. TTACCAAGGTAAGCTGAGGTCGTTGATCCAACTC
5. ATATGTAAGTTACATCCGGGTCATTCAGGCTATG
6. ACTAGTTGGTCTGCTGAGGTCACACACAATTCGG

1. 1.08
2. -0.374
3. 0.444
4. -0.293
5. 1.58
6. 0.686

I have 2 sequences here; please give me PBM binding z-score for each one.
1. ACAGACAGGTGATGAAGGTAACGCAGGCTATCAT
2. TCATATAGGTAAATGCGAGGTGAAAGTCCGATCT

[-0.0492, 1.27]

I have 3 sequences here; please give me PBM binding z-score for each one.
1. GCTATTCGTTGAAAGGGCAACCGAATGATTCTCG
2. TTACCAAGGTGAGCTGAGGTCGGTGATCCAACTC
3. GCTATTAGTTGAAAGGGCAACGGAATGATTCTCG

1. 0.733
2. -0.343
3. 1.04

I have 2 sequences here; please give me PBM binding z-score for each one.
1. ACTATTAGCTGACTTAGGGCAACCGATACGACGC
2. ATCGAAAGGTGGAGGTGAGTATAGAGAAAGGGAA

1: 1.05; 2: -0.138

I have 6 sequences here; please give me PBM binding z-score for each one.
1. GATACAGGGTCAGCTAGAGGCCAGAGGATGGAAA
2. CAAACTAGGTCATAGGTCAAAGTCGAGCCAACCA
3. CTCGAAAGGTAGGTTGAGGTGAGTATACGGATAA
4. TCTCGGAGGACACGAAAGCTCAGAGCTCGACATC
5. CCTATTAGTTGACCAAAAGGGCAACCGAAGCTCG
6. TCATATAGATAAACAGGTGAAAGTCCGTAAGTTA

[0.0573, 3.18, 0.405, -0.991, -0.0971, 0.902]

I have 5 sequences here; please give me PBM binding z-score for each one.
1. CCAGACAGGTGAAAGGTAACTCATTCTGGTACGC
2. CGAACTAGGTCATTGACAGGACAGTGCATAGTAA
3. CCTACTGGGCCAAGATCATTGATCAGTCAAAGCA
4. AATACAGGGTCACCGTAGGCCAGAGTACGCACAG
5. CGAACTAGGGCAGAACAGGACAGTGAAGGATGAT

1. -0.114
2. 2.11
3. -0.235
4. 1.63
5. 0.749

I have 6 sequences here; please give me PBM binding z-score for each one.
1. ATATGTAGGTTACCTCCGGGTCATTCAGGCTATG
2. TATATTAGTTGATTAGGGCAACCGAAACAGCGGA
3. AATACAGGGTCACTAGGCTAGAGTAGGTACGAAT
4. ACAGACAGGTGATGAAGGTAACCCAGGCTATCAT
5. ATCTCTAGGTAAAGTTCGGTGAAAGATCGATAGA
6. CCTAGTTAGTCAAGGTCACACACGCTATAGGTAC

1.67
2.25
1.74
0.463
1.46
1.12

I have 7 sequences here; please give me PBM binding z-score for each one.
1. AGAATGAGGTTATACGTAGATCAAGGAAGAAAGT
2. TCATATAGGTAAATGCCAGGTGAAAGTCCGATCT
3. TAGCCTAGGTCAGATCCGGCCAGTATACGCTATA
4. AGAATGAGGGTATACGTAGATCAGGGAAGAAAGT
5. CAGACTAGGTCACGAAAGGTCAAAGTCGAATGAC
6. CCTTACGGATCACTCCAGGTTATAGCATCGGAGT
7. CGTCCAAGGTCAGCACGTCAGTGAAAGCGACGTG

1.37
1.11
0.095
0.622
2.48
0.0149
0.0717
